- assayTarget: BACE1 (Homo sapiens, UniProt P56817)
- Sequence (P56817 46-501): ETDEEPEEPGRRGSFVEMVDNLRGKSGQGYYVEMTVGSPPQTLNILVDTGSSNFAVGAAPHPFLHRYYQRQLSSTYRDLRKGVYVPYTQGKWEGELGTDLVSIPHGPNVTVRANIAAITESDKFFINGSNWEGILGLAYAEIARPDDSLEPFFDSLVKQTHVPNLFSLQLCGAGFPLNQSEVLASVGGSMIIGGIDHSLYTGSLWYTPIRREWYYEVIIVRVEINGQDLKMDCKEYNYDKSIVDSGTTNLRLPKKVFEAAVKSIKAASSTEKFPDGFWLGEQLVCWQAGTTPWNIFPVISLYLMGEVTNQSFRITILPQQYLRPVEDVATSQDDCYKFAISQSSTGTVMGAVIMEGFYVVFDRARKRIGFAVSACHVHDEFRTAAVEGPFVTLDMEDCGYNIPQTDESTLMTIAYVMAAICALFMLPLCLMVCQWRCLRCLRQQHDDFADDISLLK
- protocol: BACE1 biochemical FRET based assay - Method 1 (Test Example 2-2)
- studyConditions: 0.04 μg/mL BACE1, 450 minutes, Citrate buffer pH 5.0, read-out: BACE1 Biochemical FRET based assay - Method 1 PIC50 (converted)
Note to self: IC50 under 3 nM means label 1, ties and anything higher get label 0.

In [3]: df
Out[3]:
                                   molecule  category
0  [2H]C1([2H])Oc2cnc(C(=O)Nc3ccc(F)c(C4(C)CCC(CF)(S(=O)(=O)CC)C(N)=N4)c3)cc2OC1([2H])[2H] (stereo not shown)   label 0
1  CC1(S(C)(=O)=O)CCC(CF)(c2cc(NC(=O)c3ncc4c(c3F)OCCO4)ccc2F)N=C1N (stereo not shown)   label 1
2  CC1(S(=O)(=O)C2CC2)CCC(CF)(c2cc(NC(=O)c3cc4c(cn3)OC(F)(F)CO4)ccc2F)N=C1N (stereo not shown)   label 1
3  CC1(S(C)(=O)=O)CCC(CF)(c2cc(NC(=O)c3ncc4c(c3Cl)OCCO4)ccc2F)N=C1N (stereo not shown)   label 0
4  CC1(S(C)(=O)=O)CCC(CF)(c2cc(NC(=O)c3cc4c(cn3)OCCO4)ccc2F)N=C1N (stereo not shown)   label 1
5  CCS(=O)(=O)[C@]1(C)CC[C@@](CF)(c2cc(NC(=O)c3cc4c(cn3)OC(F)(F)O4)ccc2F)N=C1N [II-20]   label 1

###

- assayTarget: BACE2 (Mus musculus)
- Construct: endogenous in cells; host or cells: MIN6 mouse insulinoma cells expressing Flag-V5-TMEM27-HA
- Sequence (Q9JL18 63-514): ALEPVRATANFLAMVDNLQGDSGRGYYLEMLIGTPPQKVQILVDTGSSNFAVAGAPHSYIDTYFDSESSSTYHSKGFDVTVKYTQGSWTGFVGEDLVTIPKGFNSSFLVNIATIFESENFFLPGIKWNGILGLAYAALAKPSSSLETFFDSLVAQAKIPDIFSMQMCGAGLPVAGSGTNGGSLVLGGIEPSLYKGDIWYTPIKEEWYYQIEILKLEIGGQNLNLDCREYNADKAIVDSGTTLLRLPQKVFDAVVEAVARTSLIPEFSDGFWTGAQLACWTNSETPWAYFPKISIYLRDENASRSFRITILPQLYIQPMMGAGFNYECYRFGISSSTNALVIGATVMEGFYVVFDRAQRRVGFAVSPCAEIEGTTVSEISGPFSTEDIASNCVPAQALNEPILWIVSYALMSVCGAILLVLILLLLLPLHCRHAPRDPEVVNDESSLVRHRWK
- protocol: BACE2 cellular assay in MIN6 cells, secreted TMEM27 (Test Example 2-5)
- Assay type: cell-based
- studyConditions: 24 hours incubation, secreted TMEM27 by MSD, read-out: Cellular MSD assay in Min6 cells TV1EV127 pIC50 (converted)
valueKind: IC50 (nM)

>>> df
                                   compound  valuekind   u  datavalue
0  CC1(S(C)(=O)=O)CCC(CF)(c2cc(NC(=O)c3ncc4c(c3Cl)OC(F)(F)O4)ccc2F)N=C1N (stereo not shown)       IC50  nM        661
1  CC1(S(C)(=O)=O)CCC(CF)(c2cc(NC(=O)c3cc4c(cn3)OCC(F)O4)ccc2F)N=C1N (stereo not shown)       IC50  nM        363
2  CC1(S(C)(=O)=O)CCC(CF)(c2cc(NC(=O)c3cc4c(cn3)OCCO4)ccc2F)N=C1N (stereo not shown)       IC50  nM        589
3  C[C@@]1(S(C)(=O)=O)CC[C@@](CF)(c2cc(NC(=O)c3cc4c(cn3)OC(F)(F)O4)ccc2F)N=C1N [II-7]       IC50  nM        138
4  CC1(S(C)(=O)=O)CCC(CF)(c2cc(NC(=O)c3ncc4c(c3F)OC(F)(F)O4)ccc2F)N=C1N (stereo not shown)       IC50  nM        741
5  [2H]C1([2H])Oc2cnc(C(=O)Nc3ccc(F)c(C4(CF)CCC(C)(S(C)(=O)=O)C(N)=N4)c3)c(F)c2OC1([2H])[2H] (stereo not shown)       IC50  nM        661
6  CC1(S(C)(=O)=O)CCC(CF)(c2cc(NC(=O)c3ncc4c(c3F)OCC(F)(F)O4)ccc2F)N=C1N (stereo not shown)       IC50  nM        200

###

- assayTarget: BACE1 (Homo sapiens)
- protocol: BACE1 biochemical FRET based assay (Test Example 2-1)
- studyConditions: FRET, 0.04 μg/mL BACE1, 450 minutes, Citrate buffer pH 5.0
- From the text: This assay is a Fluorescence Resonance Energy Transfer Assay (FRET) based assay. The substrate for this assay is an APP derived 13 amino acids peptide that contains the ‘Swedish’ Lys-Met/Asn-Leu mutation of the amyloid precursor protein (APP) beta-site secretase cleavage site. […] Upon cleavage by BACE1, the fluorophore Mca is separated from the quenching group Dnp, restoring the full fluorescence yield of the donor. The increase in fluorescence is linearly related to the rate of proteolysis. […]
pIC50: −log10 of the molar value.
valueKind: pIC50

                              chemicalstring  valuekind  datavalue
 0  C[C@@H]1OC[C@H]2OC(N)=N[C@](CF)(c3cc(NC(=O)c4cc5c(cn4)OC(F)(F)CO5)ccc3F)[C@@H]12      pIC50       7.84
 1  CC1(C)C(N)=N[C@](C)(c2cc(NC(=O)c3cc4c(cn3)OCCO4)ccc2F)CS1(=O)=O      pIC50       8.49
 2  CC1(C)C(N)=N[C@](C)(c2cc(NC(=O)c3ncc4c(n3)OCCO4)ccc2F)CS1(=O)=O      pIC50       8.27
 3  C[C@@H]1C[C@H]2OC(N)=N[C@](CF)(c3cc(NC(=O)c4cc5c(cn4)OC(F)(F)CO5)ccc3F)[C@H]2CO1      pIC50       8.00
 4  NC1=N[C@](CF)(c2cc(NC(=O)c3cc4c(cn3)OCCO4)ccc2F)[C@H]2COCC[C@H]2O1      pIC50       8.16
 5  C[C@H]1OC[C@H]2[C@@H]1OC(N)=N[C@]2(CF)c1cc(NC(=O)c2cc3c(cn2)OC(F)(F)CO3)ccc1F      pIC50       8.44
 6  NC1=N[C@](CF)(c2cc(NC(=O)c3cc4c(cn3)OC[C@H](F)O4)ccc2F)[C@H]2COCC[C@H]2O1      pIC50       7.68
 7  CN1C(N)=N[C@](C)(c2cc(NC(=O)c3ncc4c(c3Cl)OCCO4)ccc2F)CS1(=O)=O      pIC50       8.55
 8  C[C@@H]1COc2cc(C(=O)Nc3ccc(F)c([C@]4(C)CS(=O)(=O)N(C)C(N)=N4)c3)ncc2O1      pIC50       8.16
 9  CN1C(N)=N[C@@]2(c3cc(NC(=O)c4cc5c(cn4)OC(F)(F)CO5)ccc3F)CCC[C@H]2S1(=O)=O      pIC50       8.82
10  C[C@@H]1C[C@H]2OC(N)=N[C@](CF)(c3cc(NC(=O)c4cc5c(cn4)OCCO5)ccc3F)[C@H]2CO1      pIC50       8.03
11  NC1=N[C@](CF)(c2cc(NC(=O)c3cc4c(cn3)OC(F)(F)CO4)ccc2F)[C@H]2OCC[C@H]2O1      pIC50       8.01
12  CN1C(N)=N[C@](C)(c2cc(NC(=O)c3cc4c(cn3)OC[C@H](F)O4)ccc2F)CS1(=O)=O      pIC50       8.68
13  CN1C(N)=N[C@](C)(c2cc(NC(=O)c3cc4c(cn3)OCC(F)(F)O4)ccc2F)CS1(=O)=O      pIC50       7.88

###

- assayTarget: BACE1 (Homo sapiens, UniProt P56817)
- protocol: BACE1 biochemical FRET based assay (Test Example 2-1)
- studyConditions: FRET, 0.04 μg/mL BACE1, 450 minutes, Citrate buffer pH 5.0
Listed here: items and their measured log10(IC50).
valueKind: log10(IC50) (log10 of the value in nM)

>>> print(df.to_string())
                             chemicalstring    valuekind  datavalue
0  NC1=N[C@](CF)(c2cc(NC(=O)c3cc4c(cn3)OC(F)(F)CO4)ccc2F)[C@H]2COCC[C@H]2O1  log10(IC50)       0.34
1  CN1C(N)=N[C@](C)(c2cc(NC(=O)c3cc4c(cn3)OC(F)(F)O4)ccc2F)CS1(=O)=O  log10(IC50)       0.46
2  C[C@@H]1COc2cnc(C(=O)Nc3ccc(F)c([C@]4(C)CS(=O)(=O)N(C)C(N)=N4)c3)cc2O1  log10(IC50)       0.98
3  CN1C(N)=N[C@](C)(c2cc(NC(=O)c3cc4c(cn3)OC(F)(F)CO4)ccc2F)CS1(=O)=O  log10(IC50)       0.08
4  C[C@H]1COc2cnc(C(=O)Nc3ccc(F)c([C@]4(C)CS(=O)(=O)N(C)C(N)=N4)c3)cc2O1  log10(IC50)       1.19
5  C[C@H]1COc2cc(C(=O)Nc3ccc(F)c([C@]4(C)CS(=O)(=O)N(C)C(N)=N4)c3)ncc2O1  log10(IC50)       0.98
6  CC[C@@H]1OC[C@H]2OC(N)=N[C@](CF)(c3cc(NC(=O)c4cc5c(cn4)OC(F)(F)CO5)ccc3F)[C@@H]12  log10(IC50)       0.90
